read-out: Interleukin-8 (IL8), CXCL8 (gene 3576); experiment: BSK_CASM3C_IL8: BioMAP Diversity Plus: CASM3C Assay for Interleukin-8 (IL8) Biomarker Activity (AID 2283042); details: primary human coronary artery smooth muscle cells; actives raise or lower the signal;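 note: IL-8 protein level quantified by ELISA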
Calls of active or inactive are those of the source. Rule for the calls: active = hit-call score of the fitted dose curve at least 0.9, where 1 is the maximum; inactive = score below 0.9.
Write down one outcome, taken from active, inactive

Below are worked cases with known answers.
>  <molecule>
c1nc[nH]n1

>  <label.value>
inactive

$$$$
>  <molecule>
NC(=O)C(F)(F)C(F)(F)F

>  <label.value>
inactive

$$$$
>  <molecule>
ClC(Cl)(Cl)c1ccccc1

>  <label.value>
inactive

$$$$
>  <molecule>
Nc1cc2c3c(c1)C(c1ccccc1)=N[C@@H](NC(=O)c1cccnc1)C(=O)N3CC2

>  <label.value>
inactive

$$$$
>  <molecule>
CCOP(=S)(OCC)SCS(=O)(=O)CC

>  <label.value>
inactive

$$$$

Status in this test for `Nc1ccc2ccccc2c1` ?
inactive

----------
read-out: Interferon-gamma inducible Protein 10 (IP10), CXCL10 (gene 3627); assay: BSK_hDFCGF_IP10: BioMAP Diversity Plus: hDFCGF Assay for Interferon-gamma inducible Protein 10 (IP10) Biomarker Activity (AID 2283053); settings: primary human foreskin fibroblasts; actives raise or lower the signal
The source made the active and inactive calls. Rule for the calls: active = hit-call score of the fitted dose curve at least 0.9, where 1 is the maximum; inactive = score below 0.9.
Write down one outcome, taken from active, inactive

Below are worked cases with known answers.
>  <molecule>
COP(N)(=S)OC

>  <label.value>
inactive

$$$$
>  <molecule>
c1ccc2c(c1)Nc1ccccc1S2

>  <label.value>
active

$$$$
>  <molecule>
O=S1(=O)OCC2C(CO1)C1(Cl)C(Cl)=C(Cl)C2(Cl)C1(Cl)Cl (stereo not given)

>  <label.value>
inactive

$$$$
>  <molecule>
CC(C)Nc1ccc(Nc2ccccc2)cc1

>  <label.value>
active

$$$$

For the next question, use this molecule.
Status in this test for `CCCCc1ccccc1` ?
inactive

----------
biological target: Retinoic acid receptor alpha (Homo sapiens); assay: ATG_DR5_RAR_CIS: Attagene CIS-FACTORIAL HepG2 Assay for human Retinoic Acid Receptor Alpha (RARE), DR5 submotif (AID 2282934); conditions: HepG2 Attagene cis-factorial RARE DR5 reporter, mRNA; actives raise or lower the signal
The source made the active and inactive calls. The calls were made as follows: active = hit-call score of the fitted dose curve at least 0.9, where 1 is the maximum; inactive = score below 0.9.
Write down one outcome, taken from 1 (active), -1 (inactive)

>  <compound>
Cc1ccc([N+](=O)[O-])cc1C

>  <label.value>
-1

$$$$
>  <compound>
COP(=O)(O)OC

>  <label.value>
-1

$$$$
>  <compound>
CCCCOCCOP(=O)(OCCOCCCC)OCCOCCCC

>  <label.value>
-1

$$$$
>  <compound>
ClC1=C(Cl)C2(Cl)C3C(Cl)C(Cl)CC3C1(Cl)C2(Cl)Cl (centres undefined)

>  <label.value>
1

$$$$
>  <compound>
CCOP(=S)(Oc1ccc([N+](=O)[O-])cc1)c1ccccc1 (centres undefined)

>  <label.value>
-1

$$$$
>  <compound>
FC(F)(F)c1ccc(Cl)cc1

>  <label.value>
-1

$$$$
>  <compound>
Nc1ccc(Sc2ccc(N)cc2)cc1

>  <label.value>
-1

$$$$
>  <compound>
Nc1ccc2ccccc2c1

>  <label.value>
-1

$$$$
>  <compound>
O=S(=O)(F)C(F)(F)C(F)(F)C(F)(F)C(F)(F)C(F)(F)C(F)(F)C(F)(F)C(F)(F)F

>  <label.value>
-1

$$$$
>  <compound>
NC(=O)C(F)(F)C(F)(F)F

>  <label.value>
-1

$$$$

Status in this test for `CC(=O)c1ccc(-c2ccccc2)cc1` ?
-1

Status in this test for `COCCOCCO` ?
-1

Status in this test for `c1cc2c3c(cccc3c1)CC2` ?
-1

Status in this test for `c1ccc2c(c1)sc1ccccc12` ?
-1

Status in this test for `O=C(O)C=CC(F)(C(F)(F)F)C(F)(F)F` ?
-1

Status in this test for `O=[N+]([O-])c1ccccc1` ?
-1

Status in this test for `ClC(Cl)=C(c1ccc(Cl)cc1)c1ccccc1Cl` ?
1

Status in this test for `CCN(CC)C1CCCCC1` ?
-1

Status in this test for `CC1=C(C(=O)Nc2ccccc2)S(=O)(=O)CCO1` ?
-1

Status in this test for `CO/N=C(/C(=O)OC)c1ccccc1COc1ccccc1C` ?
1

Status in this test for `CC(C)CBr` ?
-1

Status in this test for O=S1(=O)OCC2C(CO1)C1(Cl)C(Cl)=C(Cl)C2(Cl)C1(Cl)Cl (centres undefined) ?
1

Status in this test for `OCC(F)(F)OC(F)(F)C(F)(F)OC(F)(F)CO` ?
-1

Status in this test for `CCOP(=S)(OCC)SCS(=O)(=O)CC` ?
-1

Status in this test for `CCCCc1ccc(O)cc1` ?
-1

Status in this test for `O=C(O)C(F)(F)OC(F)(F)C(F)(F)OC(F)(F)C(=O)O` ?
-1

Status in this test for `Cc1c([N+](=O)[O-])cc2c(c1[N+](=O)[O-])C(C)(C)CC2(C)C` ?
1

Status in this test for `CCCCN(CC)C(=O)SCCC` ?
-1

Status in this test for `CCOP(=S)(S)OCC` ?
-1

Status in this test for `COC(N)=O` ?
-1

----------
Read-out: Apolipoprotein A-V (APOA5) gene, APOA5 (gene 116519)
Test: LTEA_HepaRG_APOA5: Life Technologies and Expression Analysis (LTEA) Assay for Apolipoprotein A-V (APOA5) gene using HepaRG (AID 2283474)
Details: mRNA level, 48 h; actives raise or lower the signal
Description: LTEA_HepaRG is a cell based, multiplexed-readout assay that uses HepaRG, a human liver cell line, with measurements taken at 48 hours after chemical dosing on a 96-well plate.LTEA_HepaRG_APOA5 is one of 102 assay component(s) measured in the LTEA HepaRG cell culture assay. It is a marker of Steatosis.Data from the assay component LTEA_HepaRG_APOA5 was analyzed into 1 endpoint. […]
Activity calls are given as the source filed them. The calls were made as follows: active = hit-call score of the fitted dose curve at least 0.9, where 1 is the maximum; inactive = score below 0.9.
Write down one outcome, taken from t (active), f (inactive)

>  <compound>
CCOC(=O)c1ccccc1C(=O)OCC

>  <label.value>
f

$$$$

Status in this test for `O=[N+]([O-])c1ccc(Cl)c(Cl)c1` ?
f

Status in this test for O=C(O)C1C(C(=O)O)C2(Cl)C(Cl)=C(Cl)C1(Cl)C2(Cl)Cl (centres undefined) ?
f

Status in this test for `CCCCc1ccccc1` ?
f

Status in this test for `CCCCN(CCCC)N=O` ?
f

Status in this test for `O=[N+]([O-])c1ccccc1` ?
f

Status in this test for `CC(C)(C)c1ccc(O)cc1` ?
f

Status in this test for OCC1CO1 (centres undefined) ?
f

Status in this test for `Nc1cc2c3c(c1)C(c1ccccc1)=N[C@@H](NC(=O)c1cccnc1)C(=O)N3CC2` ?
f

Status in this test for `Nc1ccc(Cl)cc1` ?
f

Status in this test for O=P1(N(CCCl)CCCl)NCCCO1 (centres undefined) ?
f

Status in this test for `CCCN(CCC)c1c([N+](=O)[O-])cc(C(C)C)cc1[N+](=O)[O-]` ?
t

Status in this test for `Cc1ccc(O)cc1C` ?
f

Status in this test for `Nc1ccc2ccccc2c1` ?
f

Status in this test for ClC1=C(Cl)C2(Cl)C3C(Cl)C(Cl)CC3C1(Cl)C2(Cl)Cl (centres undefined) ?
t

Status in this test for `CCOP(=S)(OCC)SCSCC` ?
f

Status in this test for `c1ccc2c(c1)Nc1ccccc1S2` ?
f

Status in this test for `CN(C)C(=O)Cl` ?
f

Status in this test for CCC1(c2ccccc2)C(=O)N=C(O)NC1=O (centres undefined) ?
f

Status in this test for `O=P(Oc1ccccc1)(Oc1ccccc1)Oc1ccccc1` ?
t

Status in this test for `CC(Cl)(Cl)C(=O)O` ?
f

----------
target: human Retinoic Acid Receptor gamma (RARg), RARG (gene 5916) (UniProt P13631); assay: ATG_RARg_TRANS: Attagene TRANS-FACTORIAL HepG2 Assay for human Retinoic Acid Receptor gamma (RARg) (AID 2283009)
Sequence (P13631 whole entry, looked up): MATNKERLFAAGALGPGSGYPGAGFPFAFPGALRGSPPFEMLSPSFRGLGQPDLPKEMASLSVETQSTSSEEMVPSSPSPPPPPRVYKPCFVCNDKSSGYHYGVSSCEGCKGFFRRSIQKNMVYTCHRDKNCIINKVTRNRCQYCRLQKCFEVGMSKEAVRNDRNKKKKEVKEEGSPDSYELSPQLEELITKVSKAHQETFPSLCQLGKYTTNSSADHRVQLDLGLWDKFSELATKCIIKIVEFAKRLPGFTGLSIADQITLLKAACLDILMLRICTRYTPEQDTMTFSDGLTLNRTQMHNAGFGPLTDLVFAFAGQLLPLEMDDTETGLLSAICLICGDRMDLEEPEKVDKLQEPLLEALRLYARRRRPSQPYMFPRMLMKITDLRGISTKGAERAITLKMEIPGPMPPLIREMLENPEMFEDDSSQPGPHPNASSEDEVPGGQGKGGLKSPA
Inconclusive results are not listed. Active and inactive are the calls of the source. The calls were made as follows: active = hit-call score of the fitted dose curve at least 0.9, where 1 is the maximum; inconclusive = response in the unintended direction; inactive = score below 0.9.
Write down one outcome, taken from label 1 = active, label 0 = inactive

Below are worked cases with known answers.
>  <compound>
COP(=O)(O)OC

>  <label.value>
label 0

$$$$
>  <compound>
OCC(F)(F)OC(F)(F)C(F)(F)OC(F)(F)CO

>  <label.value>
label 0

$$$$
>  <compound>
CC(C)CBr

>  <label.value>
label 0

$$$$
>  <compound>
C=CC(=O)OCC(CC)(COC(=O)C=C)COC(=O)C=C

>  <label.value>
label 0

$$$$
>  <compound>
CCCCOCCOP(=O)(OCCOCCCC)OCCOCCCC

>  <label.value>
label 0

$$$$
>  <compound>
O=S1(=O)OCC2C(CO1)C1(Cl)C(Cl)=C(Cl)C2(Cl)C1(Cl)Cl (stereo not given)

>  <label.value>
label 0

$$$$
>  <compound>
C=CC(=O)OCC(F)(F)C(F)F

>  <label.value>
label 0

$$$$
>  <compound>
CCOP(=O)(O)C(N)=O

>  <label.value>
label 0

$$$$

Status in this test for `OCC(F)(F)OC(F)(F)C(F)(F)OC(F)(F)C(F)(F)OC(F)(F)CO` ?
label 0

Status in this test for `Cc1c([N+](=O)[O-])cc2c(c1[N+](=O)[O-])C(C)(C)CC2(C)C` ?
label 1
